inhibition at 0.1 µM listing for selected compounds.
MEASURED_ON: GSPT1 (Homo sapiens, UniProt P15170+Q96SW2)
Sequence (P15170 whole entry): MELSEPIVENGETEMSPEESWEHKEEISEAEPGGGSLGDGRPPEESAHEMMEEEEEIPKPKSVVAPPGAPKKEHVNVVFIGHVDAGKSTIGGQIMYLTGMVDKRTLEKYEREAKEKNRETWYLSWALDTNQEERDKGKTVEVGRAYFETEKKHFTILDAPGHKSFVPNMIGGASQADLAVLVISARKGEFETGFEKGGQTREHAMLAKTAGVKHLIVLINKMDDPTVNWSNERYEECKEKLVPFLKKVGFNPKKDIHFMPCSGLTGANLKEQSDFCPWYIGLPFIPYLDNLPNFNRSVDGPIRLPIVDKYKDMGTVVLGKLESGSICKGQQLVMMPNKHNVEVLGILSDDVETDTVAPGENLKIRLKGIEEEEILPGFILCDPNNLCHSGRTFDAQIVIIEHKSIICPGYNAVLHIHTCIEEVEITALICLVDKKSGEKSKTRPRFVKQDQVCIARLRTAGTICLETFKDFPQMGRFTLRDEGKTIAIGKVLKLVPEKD
Sequence (Q96SW2 whole entry): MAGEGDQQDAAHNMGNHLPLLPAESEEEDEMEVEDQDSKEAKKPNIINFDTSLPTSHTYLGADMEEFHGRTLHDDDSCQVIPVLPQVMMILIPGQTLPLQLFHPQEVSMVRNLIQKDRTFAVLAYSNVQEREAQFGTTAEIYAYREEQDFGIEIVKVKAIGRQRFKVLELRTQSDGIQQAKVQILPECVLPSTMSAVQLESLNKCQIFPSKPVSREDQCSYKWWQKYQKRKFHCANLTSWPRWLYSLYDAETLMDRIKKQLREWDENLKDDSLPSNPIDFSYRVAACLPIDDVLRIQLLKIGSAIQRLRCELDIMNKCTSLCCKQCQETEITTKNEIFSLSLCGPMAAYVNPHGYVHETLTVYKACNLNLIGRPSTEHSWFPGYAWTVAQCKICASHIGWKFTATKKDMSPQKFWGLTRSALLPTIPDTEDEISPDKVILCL
Sequence (Q16531 whole entry partner): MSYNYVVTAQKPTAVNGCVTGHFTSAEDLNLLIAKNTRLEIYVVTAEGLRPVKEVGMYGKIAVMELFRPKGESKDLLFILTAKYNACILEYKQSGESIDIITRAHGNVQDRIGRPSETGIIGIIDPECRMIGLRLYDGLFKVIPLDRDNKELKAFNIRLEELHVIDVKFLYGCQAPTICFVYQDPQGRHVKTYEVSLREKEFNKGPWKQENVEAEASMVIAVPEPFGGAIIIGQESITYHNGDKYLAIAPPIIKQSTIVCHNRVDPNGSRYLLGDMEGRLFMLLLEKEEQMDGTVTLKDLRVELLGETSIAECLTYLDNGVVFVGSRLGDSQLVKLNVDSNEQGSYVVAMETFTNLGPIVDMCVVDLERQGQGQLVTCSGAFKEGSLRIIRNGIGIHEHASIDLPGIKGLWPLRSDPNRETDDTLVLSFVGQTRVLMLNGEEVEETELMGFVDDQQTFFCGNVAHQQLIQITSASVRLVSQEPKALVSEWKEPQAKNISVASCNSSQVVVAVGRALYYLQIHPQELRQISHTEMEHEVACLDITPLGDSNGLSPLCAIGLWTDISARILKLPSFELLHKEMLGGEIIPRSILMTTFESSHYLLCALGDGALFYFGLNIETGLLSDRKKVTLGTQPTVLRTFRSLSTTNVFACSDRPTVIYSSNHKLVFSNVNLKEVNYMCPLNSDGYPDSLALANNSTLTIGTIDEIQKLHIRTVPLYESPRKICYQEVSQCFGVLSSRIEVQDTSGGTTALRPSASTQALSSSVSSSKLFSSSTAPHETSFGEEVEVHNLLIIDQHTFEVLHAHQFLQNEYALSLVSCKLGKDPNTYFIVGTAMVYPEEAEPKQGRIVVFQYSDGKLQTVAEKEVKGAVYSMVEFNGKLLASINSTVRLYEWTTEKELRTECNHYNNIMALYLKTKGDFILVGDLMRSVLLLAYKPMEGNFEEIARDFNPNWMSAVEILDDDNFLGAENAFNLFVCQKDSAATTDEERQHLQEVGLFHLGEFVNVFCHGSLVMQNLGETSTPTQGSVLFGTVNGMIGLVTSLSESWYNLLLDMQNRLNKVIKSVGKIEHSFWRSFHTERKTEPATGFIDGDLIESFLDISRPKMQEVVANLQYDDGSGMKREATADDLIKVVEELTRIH
ASSAY_TEXT: GSPT1 degradation, Western Blot, MV-4-11 cells, 0.1 μM, 4 hours
Type: cell-based
SETUP_CONDITIONS: MV4-11, % reduction of GSPT1 compared to DMSO, normalized to GAPDH, read-out: GSPT1 degradation classification

- COMPOUND: "O=C1CCC(N2Cc3cc(C(=O)Nc4csc5cccc(F)c45)ccc3C2=O)C(=O)N1 (stereo not drawn) [Example 67]"
  inhibition at 0.1 µM: "50 to 75%"
- COMPOUND: "O=C1CCC(N2Cc3cc(C(=O)N4CCc5c4ccc(Cl)c5F)ccc3C2=O)C(=O)N1 (stereo not drawn) [Example 66]"
  inhibition at 0.1 µM: "< 50%"
- COMPOUND: "O=C1CCC(N2Cc3cc(C(=O)Nc4csc5ccc(F)cc45)ccc3C2=O)C(=O)N1 (stereo not drawn) [Example 68]"
  inhibition at 0.1 µM: "50 to 75%"
- COMPOUND: "O=C1CCC(N2Cc3cc(C(=O)NC45CCC(F)(CC4)CC5)ccc3C2=O)C(=O)N1 (stereo not drawn) [Example 72]"
  inhibition at 0.1 µM: "50 to 75%"
- COMPOUND: "O=C1CCC(N2Cc3cc(C(=O)Nc4csc5cc(F)ccc45)ccc3C2=O)C(=O)N1 (stereo not drawn) [Example 69]"
  inhibition at 0.1 µM: "50 to 75%"
- COMPOUND: "O=C1CCC(N2Cc3cc(C(=O)N4CCc5c4ccc(F)c5F)ccc3C2=O)C(=O)N1 (stereo not drawn) [Example 65]"
  inhibition at 0.1 µM: "< 50%"
- COMPOUND: "O=C1CCC(N2Cc3cc(C(=O)Nc4csc5c(F)cccc45)ccc3C2=O)C(=O)N1 (stereo not drawn) [Example 70]"
  inhibition at 0.1 µM: "< 50%"
- COMPOUND: "O=C1CCC(N2Cc3cc(C(=O)N4CCc5c(F)ccc(F)c54)ccc3C2=O)C(=O)N1 (stereo not drawn) [Example 63]"
  inhibition at 0.1 µM: "< 50%"
- COMPOUND: "O=C1CCC(N2Cc3cc(C(=O)NC45CC(F)(C4)C5)ccc3C2=O)C(=O)N1 (stereo not drawn) [Example 71]"
  inhibition at 0.1 µM: "< 50%"

----------
MEASURED_ON: GSPT1 (Homo sapiens, UniProt P15170+Q96SW2)
ASSAY_TEXT: cell-based
SETUP_CONDITIONS: MV4-11, 6 h, read-out: GSPT1 degradation classification
REPORTED_METRIC: inhibition at 1 µM

- MOLECULE: "O=C1CCC(N2Cc3cc(C(=O)N4CCc5cc(F)cc(F)c54)ccc3C2=O)C(=O)N1 (stereo not drawn)"
  RESULT: "50 to 75%"
- MOLECULE: "O=C1CCC(N2Cc3cc(C(=O)Nc4csc5ccccc45)ccc3C2=O)C(=O)N1 (stereo not drawn)"
  RESULT: "> 75%"
- MOLECULE: "COc1ccc2c(c1)N(C(=O)c1ccc3c(c1)CN(C1CCC(=O)NC1=O)C3=O)CC2 (stereo not drawn)"
  RESULT: "< 50%"
- MOLECULE: "O=C1CCC(N2Cc3cc(C(=O)N4CCc5cc(F)ccc54)ccc3C2=O)C(=O)N1 (stereo not drawn)"
  RESULT: "> 75%"
- MOLECULE: "O=C1CCC(N2Cc3cc(C(=O)Nc4ccsc4)ccc3C2=O)C(=O)N1 (stereo not drawn)"
  RESULT: "> 75%"
- MOLECULE: "O=C1CCC(N2Cc3cc(C(=O)N4CCc5ccc(F)cc54)ccc3C2=O)C(=O)N1 (stereo not drawn)"
  RESULT: "> 75%"
- MOLECULE: "O=C1CCC(N2Cc3cc(C(=O)N4CCc5c(F)cccc54)ccc3C2=O)C(=O)N1 (stereo not drawn)"
  RESULT: "> 75%"
- MOLECULE: "O=C1CCC(N2Cc3cc(C(=O)N[C@H]4CCc5ccccc54)ccc3C2=O)C(=O)N1 (stereo partly drawn)"
  RESULT: "< 50%"
- MOLECULE: "O=C1CCC(N2Cc3cc(C(=O)N4CCc5ccccc54)ccc3C2=O)C(=O)N1 (stereo not drawn)"
  RESULT: "> 75%"
- MOLECULE: "O=C1CCC(N2Cc3cc(C(=O)N4CCc5cc(OC(F)(F)F)ccc54)ccc3C2=O)C(=O)N1 (stereo not drawn)"
  RESULT: "50 to 75%"
- MOLECULE: "O=C1CCC(N2Cc3cc(C(=O)N4CCc5cccc(F)c54)ccc3C2=O)C(=O)N1 (stereo not drawn)"
  RESULT: "< 50%"
- MOLECULE: "O=C1CCC(N2Cc3cc(C(=O)N4CCc5ccc(C(F)(F)F)cc54)ccc3C2=O)C(=O)N1 (stereo not drawn)"
  RESULT: "50 to 75%"
